system: dl-PGE1-induced contraction of gerbil colon; assay: Inhibition of dl-PGE1-Induced Contraction of Gerbil Colon (prostaglandin antagonist action); type: cell-based, gerbils (Meriones unguiculatus); conditions: Meriones unguiculatus, 1 min; 200 ng./ml. dl-PGE1; read-out: ID50 vs. 200 ng. of PGE1/ml.
value type: IC50

1) CCCCCC/C=C/[C@@H]1CCC(=O)[C@H]1C/C=C\CCCC(=O)O (relative stereo) [9-oxo-5-cis,13-trans-prostadienoic acid, 9-oxo-5-cis-13-trans-prostadienoic acid]: 9 µg/mL
2) CCC/C=C/[C@H]1CCC(=O)[C@@H]1CCCCCCC(=O)O (relative stereo): 10 to 15 µg/mL
3) CCCCCC/C=C/[C@@H]1CCC(=O)[C@H]1CCCCC(C)(C)CC(=O)O (relative stereo): 3 to 5 µg/mL

----------
tested on: bronchospasms elicited by acetylcholine; test: Bronchodilator Activity (Konzett Assay) against acetylcholine; assay type: in vivo, guinea pigs; conditions: Cavia porcellus; three logarithmic cumulative intravenous doses
value type: ED50 (mg/kg)

1) CCCCCCC=CC1CCC(C)(O)C1CCCCCCC(=O)O (stereo not shown): 4.32
2) O=C(O)CCCCCC[C@@H]1C(=O)CC[C@H]1/C=C/CCCCl (relative stereo): 3.87
3) CC(C)CC/C=C/[C@@H]1CCC(=O)[C@H]1CCCCCCC(=O)O (relative stereo): 4.3

----------
system: bronchospasms elicited by acetylcholine; assay: Bronchodilator Activity (Konzett Assay) against acetylcholine; format: in vivo, guinea pigs; conditions: Cavia porcellus; three logarithmic cumulative intravenous doses
value type: ED50 (mg/kg)

1. CCCC/C=C/[C@H]1CCC(=O)[C@@H]1CCCCCCC(=O)O (relative stereo): 5.28
2. CCCCCC/C=C/[C@@H]1CCC(=NO)[C@H]1CCCCCCC(=O)O (relative stereo) [9-oxo-13-trans-prostenoic acid 9-oxime, 9-Oxo-13-trans-prostenoic acid oxime]: 12.5
3. CC/C=C\CC/C=C/[C@@H]1CCC(=O)[C@H]1CCCCCCC(=O)O (relative stereo) [9-oxo-13-trans-17-cis-prostadienoic acid]: 6
4. CCCCCC/C=C/[C@@H]1CCC(=NNc2ccc(C(=O)O)cc2)[C@H]1CCCCCCC(=O)O (relative stereo): 5.55
5. CCCCCC/C=C/[C@H]1CC(C)C(=O)[C@@H]1CCCCCCC(=O)O (stereo partly drawn) [9-oxo-10-methyl-13-trans-prostenoic acid]: 73.2
6. CCCCCC/C=C/[C@@H]1CC[C@@H](O)[C@H]1CCCCCCC(=O)O (relative stereo) [9α-hydroxy-13-trans-prostenoic acid]: 2.53
7. CCCCC/C=C/[C@H]1CCC(=O)[C@@H]1CCCCCCC(=O)O (relative stereo) [9-oxo-20-nor-13-trans-prostenoic acid]: 1.17
8. CCCCCCC/C=C/[C@@H]1CCC(=O)[C@H]1CCCCCCC(=O)O (relative stereo) [20-methyl-9-oxo-13-trans-prostenoic acid]: 2.44
9. O=C(O)CCCCCC[C@H]1C(=O)CC[C@@H]1/C=C/CCCCCCCl (relative stereo) [20-chloro-9-oxo-13-trans-prostenoic acid]: 4.82
10. CCCCCC/C=C/[C@@H]1CCC(=O)[C@H]1CCCCOCC(=O)O (relative stereo) [9-oxo-3-oxa-13-trans-prostenoic acid]: 5.24
11. CCCCCC/C=C/[C@@H]1CCC(=O)[C@H]1C/C=C\CCCC(=O)O (relative stereo) [9-oxo-5-cis,13-trans-prostadienoic acid, 9-oxo-5-cis-13-trans-prostadienoic acid]: 4.36
12. CCC/C=C/[C@H]1CCC(=O)[C@@H]1CCCCCCC(=O)O (relative stereo): 6.42
13. CCCCCC/C=C/[C@H]1CCC(=O)[C@@H]1CCCCCCC(=O)O (relative stereo) [9-oxo-13-trans-prostenoic acid]: 1.02
14. CCCCCC/C=C/[C@@H]1CCC(=O)[C@H]1CCCCSCC(=O)O (relative stereo) [9-oxo-3-thia-13-trans-prostenoic acid]: 2.43

----------
system: Trichophyton rubrum E 97
Items are presented alongside their recorded MIC.
value type: MIC (µg/mL)

1) CCCCCC/C=C/[C@H]1CCC(=O)[C@@H]1CCCCCCC(=O)O (relative stereo) [9-oxo-13-trans-prostenoic acid]: 250
2) CCCCCC/C=C/[C@H]1CCC(=O)[C@@H]1CCCCC(=O)O (relative stereo) [9-oxo-6,7-dinor-13-trans-prostenoic acid]: 250
3) CCCCCCC/C=C/[C@@H]1CCC(=O)[C@H]1CCCCCCC(=O)O (relative stereo) [20-methyl-9-oxo-13-trans-prostenoic acid]: 100
4) CCCCCCC=CC1CCC(O)C1CCCCC(=O)O (centres unmarked): 250
5) CCOC(=O)CCCCCC[C@H]1C(=O)CC[C@@H]1/C=C/CCC[S+]([O-])CC (some centres unmarked): 250
6) CC(C)CCC=CC1CCC(O)C1CCCCCCC(=O)O (centres unmarked): 250
7) CC(C)CC/C=C/[C@@H]1CCC(=O)[C@H]1CCCCCCC(=O)O (relative stereo): 50
8) CCOC(=O)CCCCCC[C@H]1C(=O)CC[C@@H]1/C=C/CCCCCCCl (relative stereo): 250

----------
test system: bronchospasms elicited by 5-hydroxytryptamine; assay: Bronchodilator Activity (Konzett Assay) against 5-hydroxytryptamine; format: in vivo, guinea pigs; conditions: Cavia porcellus; three logarithmic cumulative intravenous doses
Heads up, the class ranges for ED50 are bin 1 = under 0.9 mg/kg, bin 2 = from 0.9 mg/kg up to 3 mg/kg, bin 3 = 3 mg/kg and over

1. CC(C)C/C=C/[C@H]1CCC(O)[C@@H]1CCCCCCC(=O)O (stereo partly drawn): bin 3
2. C=C1CC[C@@H](/C=C/CCCCCC)[C@@H]1CCCCCCC(=O)O (relative stereo) [9-methylene-13-trans-prostenoic acid, 9-Methylene-13-trans-prostenoic acid]: bin 3
3. CCCCCC/C=C/[C@H]1CC(C)C(=O)[C@@H]1CCCCCCC(=O)O (stereo partly drawn) [9-oxo-10-methyl-13-trans-prostenoic acid]: bin 2
4. O=C(O)CCCCCCC1C(O)CCC1C=CCCCCl (stereo not drawn): bin 3
5. CCS(=O)(=O)CCC/C=C/[C@H]1CCC(=O)[C@@H]1CCCCCCC(=O)O (relative stereo): bin 3
6. CCCCCCCCCC/C=C/[C@H]1CCC(=O)[C@@H]1CCCCCCC(=O)O (relative stereo) [20-butyl-9-oxo-13-trans-prostenoic acid]: bin 3
7. CCC/C=C/[C@H]1CCC(=O)[C@@H]1CCCCCCC(=O)O (relative stereo): bin 1
8. O=C(O)CCCCCC[C@H]1C(=O)CC[C@@H]1/C=C/CCCCCCCl (relative stereo) [20-chloro-9-oxo-13-trans-prostenoic acid]: bin 2
9. CCCCCC/C=C/[C@@H]1CCC(=NO)[C@H]1CCCCCCC(=O)O (relative stereo) [9-oxo-13-trans-prostenoic acid 9-oxime, 9-Oxo-13-trans-prostenoic acid oxime]: bin 3
10. CCCCC/C=C/[C@H]1CCC(=O)[C@@H]1CCCCCCC(=O)O (relative stereo) [9-oxo-20-nor-13-trans-prostenoic acid]: bin 1
11. CCCCCC/C=C/[C@@H]1CCC(=O)[C@H]1CCCCSCC(=O)O (relative stereo) [9-oxo-3-thia-13-trans-prostenoic acid]: bin 2
12. O=C(O)CCCCCC[C@@H]1C(=O)CC[C@H]1/C=C/CCCCl (relative stereo): bin 2
13. CC/C=C\CC/C=C/[C@@H]1CCC(=O)[C@H]1CCCCCCC(=O)O (relative stereo) [9-oxo-13-trans-17-cis-prostadienoic acid]: bin 1
14. CC(C)CC/C=C/[C@@H]1CCC(=O)[C@H]1CCCCCCC(=O)O (relative stereo): bin 2

----------
// values below are MIC; system is Microsporum canis ATCC 10214
value type: MIC (µg/mL)

1. CCCCCC/C=C/[C@@H]1CCC(=O)[C@H]1CCCCCCC(=O)OCCN(C)C (relative stereo): 250
2. CCCCCCC=CC1CCC(O)C1CCCCC(=O)O (stereo not drawn): 250
3. O=C(O)CCCCCC[C@H]1C(=O)CC[C@@H]1/C=C/CCCCCCCl (relative stereo) [20-chloro-9-oxo-13-trans-prostenoic acid]: 250
4. CCOC(=O)CCCCCC[C@H]1C(=O)CC[C@@H]1/C=C/C(C)C (relative stereo): 250
5. CCCCCC/C=C/[C@H]1CCC(=O)[C@@H]1CCCCCCC(=O)O (relative stereo) [9-oxo-13-trans-prostenoic acid]: 50
6. CC(C)CC/C=C/[C@@H]1CCC(=O)[C@H]1CCCCCCC(=O)O (relative stereo): 50
7. CCCCCC/C=C/[C@H]1CCC(O)[C@@H]1CCCCCCC(=O)O (stereo partly drawn) [9-hydroxy-13-trans-prostenoic acid]: 50
8. CC/C=C\CC/C=C/[C@@H]1CCC(=O)[C@H]1CCCCCCC(=O)O (relative stereo) [9-oxo-13-trans-17-cis-prostadienoic acid]: 125
9. CCCCC/C=C/[C@H]1CCC(=O)[C@@H]1CCCCCCC(=O)O (relative stereo) [9-oxo-20-nor-13-trans-prostenoic acid]: 50

This collection of values is drawn from patent US4044043A.
